Data provenance is ChEMBL document CHEMBL1201862.

test system: KM12; assay: NCI tumour cell line growth inhibition, 48 h
Calls of active or inactive are those of the source. No stated cut-off is given here; in the data, active = GI50 up to about 1.1 µM and inactive = higher.
Would you kindly list GI50 for each of these molecules?

Solved cases below.
CCCCCCCCCCCCc1ccsc1-c1ccc(-c2ccc(-c3sc(-c4cc(CCCCCCCCCCCC)c(-c5ccc(-c6ccc(-c7sccc7CCCCCCCCCCCC)s6)s5)s4)cc3CCCCCCCCCCCC)s2)s1; > 100 µM (inactive)
COc1ccc2[nH]c(Cl)c(/C=C3/C(=O)N(c4ccccc4)c4ccccc43)c2c1; 3.25 µM (inactive)
CC(Br)CN(CC(C)Br)c1ccc2c(c1)Cc1ccccc1-2 (stereo not given); 16.5 µM (inactive)
CCCCc1c2c(nc3c1CCC/C3=C\c1ccccc1)C(=O)CCC2; 18.7 µM (inactive)
c1ccc2nc(CCC3CCCCN3)ccc2c1 (stereo not given); > 100 µM (inactive)
CCCN1CC=C(c2cc(C(=O)OCC)[nH]c2-c2cc(C)no2)C1=O; > 100 µM (inactive)
O=C(Nc1ccc2nc(-c3ccccc3)cn2c1)Oc1ccccc1; 24.9 µM (inactive)
NNC(=O)N/N=C1\CNC(=O)C(=O)C1c1nc2ccccc2s1 (stereo not given); > 100 µM (inactive)
Cc1ccc(S(=O)(=O)OC(C=O)C(O)C(O)COC(c2ccccc2)(c2ccccc2)c2ccccc2)cc1 (stereo not given); 11.9 µM (inactive)

Turning now to a further record.
Form field: reported GI50 of CC(C)=CC1C(C(=O)Oc2ccccc2C(C)C)C1(C)C (stereo not given)
18.1 µM (inactive)

====

tested on: NCI-H522; assay: NCI tumour cell line growth inhibition, 48 h
Calls of active or inactive are those of the source. Rule as the data show it: active = GI50 up to about 1.1 µM and inactive = higher.
Your response should consist of one outcome taken from true = active, false = inactive

Short answer needed: outcome of this test for COc1cc(-c2nn3c(=O)n(-c4ccc(Cl)cc4)c(=O)nc3s2)cc(OC)c1OC ?
false

Short answer needed: outcome of this test for CC1OC(OC2C(OC(=O)[C@]34CCC(C)(C)C[C@H]3C3=CC[C@@H]5[C@@]6(C)CC[C@H](OC7OC(C(=O)O)C(O)C(O)C7O)C(C)(C)[C@@H]6CC[C@@]5(C)[C@]3(C)C[C@H]4O)OCC(O)C2O)C(O)C(OC2OCC(O)(CO)C2O)C1OC1OCC(O)C(O)C1O (stereo partly drawn) ?
false

Short answer needed: outcome of this test for CCC1C(c2cc(OC)c(OC)c(OC)c2)c2cc3c(cc2OC1N1CCOCC1)OCO3 (stereo not drawn) ?
false

Short answer needed: outcome of this test for Cc1ccccc1-c1nc2c(C(=O)NCCN(C)C)cccc2[nH]1 ?
false

Short answer needed: outcome of this test for CCN(C(=S)N[C@@H](Cc1ccccc1)C(=O)N[C@@H](CC(C)C)C(=O)OC)c1ccccc1 ?
false

====

Would you kindly list GI50 for each of these molecules?
tested on: M14; experiment: NCI tumour cell line growth inhibition, 48 h
Calls of active or inactive are those of the source. No stated cut-off is given here; in the data, active = GI50 up to about 1.1 µM and inactive = higher.

Solved cases below.
CC[C@]12C=CCN3CCC4(c5cc([C@@]6(C(=O)OC)CC7CN(CCc8c6[nH]c6ccccc86)C[C@@H]6CCCC[C@H]76)c(OC)cc5N(C)C4[C@](O)(C(=O)OC)C1OC(C)=O)[C@@H]32 (some centres undefined); < 0.01 µM (active)
O=CCC1CCCCC1; > 100 µM (inactive)
O=C(NO)c1coc2ccccc2c1=O; 67.9 µM (inactive)
NC1CC(=O)c2cc(Cl)sc21 (centres undefined); > 100 µM (inactive)
CCOC(=O)/C(=C/c1ccccc1Br)P(=O)(OCC)OCC; 1.54 µM (inactive)
O=C1c2ccccc2C(=O)c2c1nc1ccccc1c2-c1cncc(-c2c3c(nc4ccccc24)C(=O)c2ccccc2C3=O)c1; 3.18 µM (inactive)
O=S1(=O)NC2CCC3NS(=O)(=O)NC4CCC(N1)N4S(=O)(=O)N23 (centres undefined); > 100 µM (inactive)
Cc1ccc(S(=O)(=O)OC(C=O)C(O)C(O)COC(c2ccccc2)(c2ccccc2)c2ccccc2)cc1 (centres undefined); 16.1 µM (inactive)

Form field: reported GI50 of C(=C\C(Sc1ccccc1)c1ccccc1)/NNC1=NN=C(c2ccccc2)C(c2ccccc2)N1 (centres undefined)
75 µM (inactive)

====

system: MDA-MB-435; experiment: NCI tumour cell line growth inhibition, 48 h
Activity calls are given as the source filed them. No stated cut-off is given here; in the data, active = GI50 up to about 1.1 µM and inactive = higher.
Your response should consist of one outcome taken from T for active, F for inactive

Nc1ccccc1N/C(=C\C(=O)C(Cl)(Cl)Cl)c1ccccc1; F
NC1CC(=O)c2cc(Cl)sc21 (stereo not given); F
CNc1ncnc2c1nc(NC1CCCC1)n2C1OC(CO)C(O)C1O (stereo not given); F
CCCc1cn2c(/C=N/NC(=N)N)c(-c3ccc(Cl)c([N+](=O)[O-])c3)nc2s1; F
c1ccc([P+](Cc2ccc(C[P+](c3ccccc3)(c3ccccc3)c3ccccc3)cc2)(c2ccccc2)c2ccccc2)cc1; F

Short answer needed: outcome of this test for O=CCC1CCCCC1 ?
F

Short answer needed: outcome of this test for COC(=O)C1=CCC[C@H]2[C@@]1(COC(C)=O)CC[C@@H](C)[C@]2(C)CC(=O)c1ccoc1 ?
F

====

tested on: NCI-H522; experiment: NCI tumour cell line growth inhibition, 48 h
Active and inactive are the calls of the source. Rule as the data show it: active = GI50 up to about 1.1 µM and inactive = higher.
Your response should consist of one outcome taken from active, inactive

Nc1ccc2[nH]cc(CCC(=O)O)c2c1; inactive
C=CCn1c(-c2ccc(-c3cs/c(=N\N=O)n3CC=C)cc2)cs/c1=N\N=O; inactive
O=[N+]([O-])c1ccc(-c2ccc(C3=Nn4c(CNc5ccccc5Cl)nnc4SC3)o2)cc1; inactive

Short answer needed: outcome of this test for CCOC(=O)C(C(=O)OCC)C1C=CCC2c3ccccc3COCC21 (stereo not given) ?
inactive

Short answer needed: outcome of this test for OC(CCN1CCN(CCOC(c2ccc(F)cc2)c2ccc(F)cc2)CC1)c1ccccc1 (stereo not given) ?
inactive

Short answer needed: outcome of this test for CC(C)C(=O)C(C)(C)CCc1ccccn1 ?
inactive

Short answer needed: outcome of this test for CCN(/N=C1\CC2C=CCN(C2)C(=O)Cc2c1[nH]c1ccccc21)S(=O)(=O)c1ccc(C)cc1 (stereo not given) ?
inactive

====

test system: HOP-62; assay: NCI tumour cell line growth inhibition, 48 h
Active and inactive are the calls of the source. Cut-off read from the data, not from the text of the source: active = GI50 up to about 1.1 µM and inactive = higher.
Your response should consist of one outcome taken from t (active), f (inactive)

C=CCCCC(C#N)(c1ccccc1)N1CCCC1 (stereo not given); f
COc1cc(C2SCC(=O)N2c2ccc(-n3c(-c4ccccc4)nc4ccccc4c3=O)cc2)ccc1O (stereo not given); f
c1ccc2c(c1)CCN1CCc3ccccc3C1C2 (stereo not given); f
OCC1CCCC(n2cnc3c(S)ncnc32)O1 (stereo not given); f
N#CC(Cl)CS(=O)(=O)c1ccccc1 (stereo not given); f
CCN(CC)C(=O)N1CCN(C=S)CC1; f
Nc1ccc2[nH]cc(CCC(=O)O)c2c1; f
CC(NCc1c(O)ccc2ccc(=O)oc12)C(=O)O (stereo not given); f
C=CCN1CC2CN=NC2(C#N)C1 (stereo not given); f
CCOC(=O)/C=C(/C(=O)OCC)n1cc(C)c(=O)[nH]c1=O; f

Short answer needed: outcome of this test for COc1cccc2c1C(=O)c1ccc3cc(CO)cc(O)c3c1C2=O ?
f

Short answer needed: outcome of this test for Cc1ccc2c(c1)C(O)(c1ccccc1)CCS2 (stereo not given) ?
f

Short answer needed: outcome of this test for N#Cc1ccc(Nc2cnc3ccc(N)cc3n2)cc1 ?
f

Short answer needed: outcome of this test for CC(C)C[C@H](NC(=O)[C@@H](Cc1cccc2ccccc12)NC(=O)N1CCOCC1)B(O)O ?
f

Short answer needed: outcome of this test for O=C(NCC(O)COc1ccccc1)c1ccccc1O (stereo not given) ?
f

Short answer needed: outcome of this test for Nc1nc(O)c2c(ncn2CC(O)CO)n1 (stereo not given) ?
f

Short answer needed: outcome of this test for OC(CCN1CCN(CCOC(c2ccc(F)cc2)c2ccc(F)cc2)CC1)c1ccccc1 (stereo not given) ?
f

Short answer needed: outcome of this test for CCC(CO)COC(=O)/C=C/C(=O)OCC(CC)CO (stereo not given) ?
f

Short answer needed: outcome of this test for CCOC(=O)C1CCC(=O)N1C(=O)c1ccc(Cl)cc1 (stereo not given) ?
f

Short answer needed: outcome of this test for CNc1ncnc2c1nc(NC1CCCC1)n2C1OC(CO)C(O)C1O (stereo not given) ?
f

Short answer needed: outcome of this test for Cc1nc(N)nc(S)c1CCC(=O)O ?
f

Short answer needed: outcome of this test for CC(=O)O[C@@H]1CC[C@@]2(C)C(=O)C34C[C@@]5(C)C([C@@H](C)CCCC(C)C)CCC5(C)[C@](O)(O3)C(=O)[C@H]4C2C1(C)C (stereo not given in full) ?
f

Short answer needed: outcome of this test for O=C(O)c1cc2ccccc2c(/N=N/c2ccc(S(=O)(=O)Nc3ccccn3)cc2)c1O ?
f

Short answer needed: outcome of this test for CCOC(=O)C1=C(C)NC2=C(C(=O)N(c3ccccc3)C2c2ccccc2)C1c1ccccc1 (stereo not given) ?
f

Short answer needed: outcome of this test for CCOC(=O)c1c(C)[nH]c2c1c(CN(C)C)c(O)c1nc(C)c(C)nc12 ?
f

Short answer needed: outcome of this test for CCOC(=O)C1=C(Nc2cccc(OC)c2)OCC1=O ?
f

Short answer needed: outcome of this test for CC1OC(OCC2COC(O)(Oc3c(-c4ccc(O)c(O)c4)oc4cc(O)cc(O)c4c3=O)C(O)C2O)C(O)C(O)C1O (stereo not given) ?
f
